- target or test system: T1, human IL-6 (human, UniProt P05231 30-212)
- T1 construct: IL-6 flowed over captured antibodies
- T1 sequence (P05231 30-212 limits assumed): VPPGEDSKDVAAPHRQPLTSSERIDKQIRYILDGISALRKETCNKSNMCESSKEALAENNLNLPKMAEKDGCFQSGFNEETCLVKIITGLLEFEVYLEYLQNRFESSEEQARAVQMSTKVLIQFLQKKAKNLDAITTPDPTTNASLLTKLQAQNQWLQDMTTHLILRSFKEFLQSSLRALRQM
- procedure details: SPR Biacore, supernatant Ab on Protein A chip, 37 C
pKd: −log10 of the molar value.

binder	pKd
anti-IL-6 antibody, heavy chain I51K, G66D / light chain M32L, M50D, N52S, M88Q (antibody, IgG1, V domains shown, Full IgG1 (Expi293); VL = variant III) VH: EVQLVESGGGLVQPGGSLRLSCAASGFTFSPFAMSWVRQAPGKGLEWVAKKSPGGSWTYYSDTVTDRFTFSLDTSKSTAYLQMNSLRAEDTAVYYCARQLWGYYALDIWGQGTLVTVSS VL: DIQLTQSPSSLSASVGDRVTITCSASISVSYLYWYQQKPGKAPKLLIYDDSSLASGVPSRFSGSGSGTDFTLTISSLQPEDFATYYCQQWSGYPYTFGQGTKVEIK	9.46
anti-IL-6 antibody, heavy chain S35A, G66D / light chain M32L, M50D, N52S, M88Q (antibody, IgG1, V domains shown, Full IgG1 (Expi293); VL = variant III) VH: EVQLVESGGGLVQPGGSLRLSCAASGFTFSPFAMAWVRQAPGKGLEWVAKISPGGSWTYYSDTVTDRFTFSLDTSKSTAYLQMNSLRAEDTAVYYCARQLWGYYALDIWGQGTLVTVSS VL: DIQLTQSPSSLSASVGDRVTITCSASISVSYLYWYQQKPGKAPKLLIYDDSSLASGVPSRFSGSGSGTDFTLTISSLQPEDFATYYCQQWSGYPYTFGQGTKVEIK	9.18
anti-IL-6 antibody, heavy chain T65R, G66D / light chain M32L, M50D, N52S, M88Q (antibody, IgG1, V domains shown, Full IgG1 (Expi293); VL = variant III) VH: EVQLVESGGGLVQPGGSLRLSCAASGFTFSPFAMSWVRQAPGKGLEWVAKISPGGSWTYYSDTVRDRFTFSLDTSKSTAYLQMNSLRAEDTAVYYCARQLWGYYALDIWGQGTLVTVSS VL: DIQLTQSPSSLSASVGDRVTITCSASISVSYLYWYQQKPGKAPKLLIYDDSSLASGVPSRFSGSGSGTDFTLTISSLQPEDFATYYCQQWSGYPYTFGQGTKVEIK	9.49
anti-IL-6 antibody, heavy chain T63G, G66D / light chain M32L, M50D, N52S, M88Q (antibody, IgG1, V domains shown, Full IgG1 (Expi293); VL = variant III) VH: EVQLVESGGGLVQPGGSLRLSCAASGFTFSPFAMSWVRQAPGKGLEWVAKISPGGSWTYYSDGVTDRFTFSLDTSKSTAYLQMNSLRAEDTAVYYCARQLWGYYALDIWGQGTLVTVSS VL: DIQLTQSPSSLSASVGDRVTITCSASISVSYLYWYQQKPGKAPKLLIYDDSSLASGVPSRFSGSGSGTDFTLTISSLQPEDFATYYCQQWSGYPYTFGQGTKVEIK	9.58
anti-IL-6 antibody, heavy chain I51Q, G66D / light chain M32L, M50D, N52S, M88Q (antibody, IgG1, V domains shown, Full IgG1 (Expi293); VL = variant III) VH: EVQLVESGGGLVQPGGSLRLSCAASGFTFSPFAMSWVRQAPGKGLEWVAKQSPGGSWTYYSDTVTDRFTFSLDTSKSTAYLQMNSLRAEDTAVYYCARQLWGYYALDIWGQGTLVTVSS VL: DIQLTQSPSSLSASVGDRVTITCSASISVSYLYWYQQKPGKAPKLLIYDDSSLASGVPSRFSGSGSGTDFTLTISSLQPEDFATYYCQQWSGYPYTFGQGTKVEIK	9.24
